Some binders, each annotated with its measured Neutralization IC50 (RSV subtype A).
target: RSV F on RSV-A2 virus (Respiratory syncytial virus, RSV-A2, UniProt P03420 26-574); assay: cell-based or functional assay

# binder, relation_operator, Neutralization IC50 (RSV subtype A) (µg/mL)
rows = [
    ("ADI-41598 (antibody, V domains shown) VH: EVQLVESGPGLVKPSETLSLTCTVSGGSITPYYWSWIRQPPGKGLEWIGNISYSGSTTYNPSLKSRVTISVDRSKDQFSLRLRSVTAADTAVYYCARVVTLVLGVSLNDAFDIWGQGTMVTVSS VL: DIQMTQSPSSLSASVGDRVTITCRASQSISRYLNWYQHKPGKAPILLIYAATTLESGVPPRFSGSGSGTDFSLTISSLQPEDFATYYCQQSYSVPLTFGGGTKLEIK", "=", 0.174),
    ("ADI-41626 (antibody, V domains shown) VH: EVQLQESGPGLVKPSGTLSLTCAVAGGFISSGNWWSWIRQPPGKGLEWIGEVYHSGRTSYNPSLKSRVTISVDNSKNQFSLKMSSVTAADTAVYYCARVESYSSSGYYIAYFDNWGQGNLVTVSS VL: DIVLTQSPSSLSASVGDRVTITCRASQSISRYLSWYQQKPGKAPKLLIYAAFSLQTGVPSRFSGSGSGTDFTLTISSFQTEDSATYYCQQSYSAPVTFGGGTKVEIK", ">", 25),
    ("ADI-41603 (antibody, V domains shown, also called Ab 877; Antibody Number 877) VH: EVQLVESGGGLVKPGRSLRLSCTTSGFTFGDYAMSWFRQAPGKGLEWVGFIRSKPYGGATAYAASVRGRFTISNDDSKSIAYLQMESLKIEDTAVYYCARDYDDFFFYDYWGQGTLVTVSS VL: DIRMTQSPATLSVSPGERATLSCRASENIYSNLAWYQQKPGQAPRLLIYGASTRATGLPARFSGSGSGTEFTLTISSLQSEDFAVYYCQQYNNWPAFGGGTKVEIK", ">", 25),
    ("ADI-41794 (antibody, V domains shown) VH: EVQLQQWGAGLLKPSETLSLTCAVYGGSFSGYYWSWIRQPPGKGLEWIGEINHSGSTNYNPSLKSRVTISVDTSKNQFSLKLSSVTAADTAVYYCARGTRTIVYCDGDCYQPWAYHYYGMDVWGQGTTVTVSS VL: QSVVTQEPSVSAAPGQKVTISCSGGSSNIGNNYVSWYQHLPGTAPKLLIYDNDKRPSGIPDRFSGSKSGTSATLGITGLQTGDEADYYCGTWDSSLSAVVFGGGTKLTVL", ">", 25),
    ("ADI-41599 (antibody, V domains shown) VH: EVQLLESGGGLVQPGGSLRLSCAASGFIFSNYEMNWVRQAPGKGLEWISHITPTGNSIYYADSVKGRFTISRDNAKNAQYLQMHSLRPDDTAIYYCARGEDPIAATGGFDSWGQGTLVTVSS VL: EIVLTQSPSSLSASVGDRVTIPRRSSQNVDKFLHWYQQRPGKAPKLLIYAAFSLQSGVPSRFSGSGSGTDFTLTISSLQPEDFATYYCQQSYSTPFTFGQGTKVEIK", "=", 0.637),
]
